Reference source for all entries: ChEMBL document CHEMBL1671666

TARGET SYSTEM: Human immunodeficiency virus type 1 reverse transcriptase (Human immunodeficiency virus 1)
ASSAY NAME: Ratio of Kpol to Kd for HIV1 reverse transcriptase
Each entry gets label 0 if its Ratio stays under 1 µM⁻¹ s⁻¹, and label 1 if its Ratio is 1 µM⁻¹ s⁻¹ or above.

>  <COMPOUND>
Nc1nc(=O)c2ncn([C@H]3C=C[C@@H](COP(=O)(O)OP(=O)(O)OP(=O)(O)O)C3)c2[nH]1 (single isomer, unassigned) [CARBOVIR 5'-TRIPHOSPHATE, (-)-]

>  <TARGET SYSTEM>
Human immunodeficiency virus type 1 reverse transcriptase (Human immunodeficiency virus 1)

>  <CAT>
label 0

$$$$
>  <COMPOUND>
Nc1ncnc2c1ncn2[C@H]1C[C@H](O)[C@@H](COP(=O)(O)OP(=O)(O)OP(=O)(O)O)O1

>  <TARGET SYSTEM>
Human immunodeficiency virus type 1 reverse transcriptase (Human immunodeficiency virus 1)

>  <CAT>
label 1

$$$$
>  <COMPOUND>
Nc1nc2c(ncn2[C@H]2C[C@H](O)[C@@H](COP(=O)(O)OP(=O)(O)OP(=O)(O)O)O2)c(=O)[nH]1 [DEOXYGUANOSINE TRIPHOSPHATE]

>  <TARGET SYSTEM>
Human immunodeficiency virus type 1 reverse transcriptase (Human immunodeficiency virus 1)

>  <CAT>
label 1

$$$$
>  <COMPOUND>
Cc1cn([C@H]2C=C[C@@H](COP(=O)(O)OP(=O)(O)OP(=O)(O)O)O2)c(=O)[nH]c1=O [STAVUDINE TRIPHOSPHATE]

>  <TARGET SYSTEM>
Human immunodeficiency virus type 1 reverse transcriptase (Human immunodeficiency virus 1)

>  <CAT>
label 1

$$$$
>  <COMPOUND>
Cc1cn([C@H]2C[C@H](N=[N+]=[N-])[C@@H](COP(=O)(O)OP(=O)(O)OP(=O)(O)O)O2)c(=O)[nH]c1=O

>  <TARGET SYSTEM>
Human immunodeficiency virus type 1 reverse transcriptase (Human immunodeficiency virus 1)

>  <CAT>
label 1

$$$$
>  <COMPOUND>
Nc1ccn([C@@H]2CS[C@H](COP(=O)(O)OP(=O)(O)OP(=O)(O)O)O2)c(=O)n1

>  <TARGET SYSTEM>
Human immunodeficiency virus type 1 reverse transcriptase (Human immunodeficiency virus 1)

>  <CAT>
label 0

$$$$
>  <COMPOUND>
Nc1ccn([C@H]2C[C@H](O)[C@@H](COP(=O)(O)OP(=O)(O)OP(=O)(O)O)O2)c(=O)n1

>  <TARGET SYSTEM>
Human immunodeficiency virus type 1 reverse transcriptase (Human immunodeficiency virus 1)

>  <CAT>
label 1

$$$$
>  <COMPOUND>
C[C@H](Cn1cnc2c(N)ncnc21)OCP(=O)(O)OP(=O)(O)OP(=O)(O)O

>  <TARGET SYSTEM>
Human immunodeficiency virus type 1 reverse transcriptase (Human immunodeficiency virus 1)

>  <CAT>
label 1

$$$$
>  <COMPOUND>
[N-]=[N+]=N[C@H]1C[C@H](n2cnc3c(=O)[nH]c(N)nc32)O[C@@H]1COP(=O)(O)OP(=O)(O)OP(=O)(O)O

>  <TARGET SYSTEM>
Human immunodeficiency virus type 1 reverse transcriptase (Human immunodeficiency virus 1)

>  <CAT>
label 1

$$$$
>  <COMPOUND>
Nc1ccn([C@H]2CC[C@@H](COP(=O)(O)OP(=O)(O)OP(=O)(O)O)O2)c(=O)n1 [DDCTP]

>  <TARGET SYSTEM>
Human immunodeficiency virus type 1 reverse transcriptase (Human immunodeficiency virus 1)

>  <CAT>
label 0

$$$$
>  <COMPOUND>
Cc1cn([C@H]2C[C@H](O)[C@@H](COP(=O)(O)OP(=O)(O)OP(=O)(O)O)O2)c(=O)[nH]c1=O [DEOXYTHYMIDINE_TRIPHOSPHATE]

>  <TARGET SYSTEM>
Human immunodeficiency virus type 1 reverse transcriptase (Human immunodeficiency virus 1)

>  <CAT>
label 1

$$$$
>  <COMPOUND>
[N-]=[N+]=N[C@H]1C[C@H](n2cnc3c(N)ncnc32)O[C@@H]1COP(=O)(O)OP(=O)(O)OP(=O)(O)O

>  <TARGET SYSTEM>
Human immunodeficiency virus type 1 reverse transcriptase (Human immunodeficiency virus 1)

>  <CAT>
label 1

$$$$
